This collection of values is drawn from patent US20180339043A1.

# assayed.system: T1, PD-L1 antibody
# T1 construct: also called anti-PD-L1
# method: dissociation ELISA: PD-L1 antibody dilution series on immobilised biotinylated peptide, incubation at pH 7.2
Ends that are not written are not given here.
readout: EC50 (nM)

| binder | unit.of.measure | EC50 |
| --- | --- | --- |
| GGHCVDMVDFYQQTCQ (cysteine pairing not given here; also: biotinylated, Chemically synthesized biotinylated peptide; also called 23 (Control)) [Peptide 23] | nM | 0.3 |

1: QLFYPSTYHIID (also: biotinylated, chemically synthesized biotinylated peptide) [Peptide 20]
2: GGLCSTFYEPQVDICY (cysteine pairing not given here; also: biotinylated, chemically synthesized biotinylated peptide) [Peptide 29]
3: GGMCHELFYSNLNWCQ (cysteine pairing not given here; also: biotinylated, chemically synthesized biotinylated peptide) [Peptide 22]
Prompt: Form: Sort by [EC50] Order [ ascending ] Would you mind listing the labels in the order asked for?
Response: 3, 1, 2
(3: 0.045 nM, 1: 0.13 nM, 2: 0.23 nM)
